Reported TGI values for the following molecules.
- Test system: NCI-H226 lung
- ASSAY_NOTES: NCI tumour cell line growth inhibition, 48 h
Field: numeric (µM). Do not append units.

Example molecules with recorded TGI:
COMPOUND_STRING | VALUE
CC(C)(C[C@H]1CN(S(=O)(=O)c2cccc(C(F)(F)F)c2)c2cc(-c3cc(F)cc(OC(F)F)c3)ccc2O1)C(=O)O | 56
CC/C=C\C[C@H]1C/C=C2/C(=O)C=C[C@@H]2C/C=C\CCCC(=O)O1 | 4.75
Oc1cccc(-c2nc3cc(F)ccc3s2)c1 | 44

Moving on to another molecule below.
Incoming: Recorded TGI for "CC(C)(C)OC(=O)NCCCNC1(c2cc3ccccc3s2)CCCCC1" , please?
Outgoing: 46.1

====

- System: CAKI-1 renal
- ASSAY_NOTES: NCI tumour cell line growth inhibition, 48 h; in the data active = GI50 below about 0.43 µM; inactive = the rest
Hi there, use one of these labels in your reply, thanks! yes = active, no = inactive

Previously resolved entries follow.
MOLECULE | CLASS_NAME
O=c1c2ccccc2c(=O)c2c1[nH]c1c(-c3ccccc3)c(-c3ccccc3)c(=O)c12 | no
COc1cccc(C#Cc2ccccc2C#CCCCCO)c1 | no
Nc1ccn(C2CCC(CO)O2)c(=O)n1 (stereo unspecified) | no
CC(C)C[C@H](NC(=O)/C=C/Cn1ccc2ccccc2c1=O)B(O)O | no
COc1cc(/C=C/c2cc(/C=C/c3ccc(O)c(OC)c3)n(C(=O)Nc3ccc(C)cc3C)n2)ccc1O | yes

Continue with the next molecule.
Incoming: Answer briefly: the call reported for "CCSc1nc(SCC)c2cn[nH]c2n1" in this assay.
Outgoing: no

====

Reported TGI values for the following compounds.
- System: SK-OV-3 ovarian
- ASSAY_NOTES: NCI tumour cell line growth inhibition, 48 h

COMPOUND | TGI
CN(CCC#N)c1ccc(/C=C(\C#N)c2ccc(Br)cc2)cc1 | > 100 µM

Incoming: Recorded TGI for CSc1cnc2ccccc2c1SC1CN(Cc2ccccc2)c2ccccc2C1=O (stereo not given) , please?
Outgoing: > 100 µM

Incoming: Recorded TGI for CC1=C(CO)C(=O)O[C@@H]([C@@H](CO)[C@H]2CCC3C4C[C@@H](O)[C@@]5(O)CC=CC(=O)[C@]5(C)C4CC[C@@]32C)C1 (stereo not given in full) , please?
Outgoing: > 100 µM

Incoming: Recorded TGI for "COc1cc(C(=O)c2cc(C)c3[nH]c4ccc(C)cc4c3c2C)cc(OC)c1OC" , please?
Outgoing: > 100 µM

Incoming: Recorded TGI for "COc1ccc(/C=C2\N=C(SC)NC2=O)cc1" , please?
Outgoing: > 100 µM

Incoming: Recorded TGI for COc1ccc(CC2NCCc3cc(OC)c(OC)cc32)cc1Br (stereo not given) , please?
Outgoing: > 100 µM

Incoming: Recorded TGI for CC(=O)O[C@]12CCCCCC1C1(O)C(O)CCCC[C@H]12 (stereo not given in full) , please?
Outgoing: > 100 µM

Incoming: Recorded TGI for "Nc1nc(Cl)cc(NCC2(CO)CCCC2)n1" , please?
Outgoing: > 100 µM

Incoming: Recorded TGI for "CC(C)(C)OC(=O)NCCCNC1(c2cc3ccccc3s2)CCCCC1" , please?
Outgoing: 26.2 µM

Incoming: Recorded TGI for "O=c1cc(NC2CCN(CCCc3ccccc3)CC2)c2cc(Cl)ccc2o1" , please?
Outgoing: 29.8 µM
